Known EC50 of a selection of binders
- assayed-system: ZIKV E protein (GZ01) (Zika virus (strain GZ01))
- assay-overview: ELISA
quantity-name: EC50 (ng/mL)

INSERT INTO results (binder, value) VALUES
  ('ZK2B10 (antibody, V domains shown) VH: EVQLVQSGAEVKKPGASVKVSCKASGYTFTSGHTFPSYDINWVRQATGQGLEWMGWMNPNRGNTGYAQKFQGRVTMTRNTSINTAYMELSSLRSEDTAVYYCARVRSGTNYGSYYYYYYGMDVWGQGTTVTVSS VL: SYELTQPPSASGTPGQRVTISCSGSSSNIGNNYVHWYQQLPGSAPKLLIYRNNQRPSGVPDRFSGSKSGTSGSLAISGLRSEDEADYYCASWDDSLSGHWVFGGGTKVTVL', 3.3),
  ('2H-16 (antibody, V domains shown) VH: QVQLVQSGAEVKKPGASVKVSCKASGYTFTSYDINWVRQATGQGLEWMGWMNPNSGNTGCAQKFQGRVTMTRNTSISTAYMELSSLRSEDTAVYYCARVSSGSYYGSYYYYYYGMDVWGQGTTVTVSS VL: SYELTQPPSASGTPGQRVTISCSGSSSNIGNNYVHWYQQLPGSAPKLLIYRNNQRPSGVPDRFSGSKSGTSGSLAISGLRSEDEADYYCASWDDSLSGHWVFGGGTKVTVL', 5.8),
  ('2H-14 (antibody, V domains shown) VH: QVHAVQSGAEVKKPGASVKVSCKASGYTFTSYGINWVRQATGQGLEWMGWMNPNSGNTGYAQKFQGRVTMTRNTSISTAYMELSSLRSEDTAVYYCARVSSGSYYGSYYYYYYGMDVWGQGTTVTVSS VL: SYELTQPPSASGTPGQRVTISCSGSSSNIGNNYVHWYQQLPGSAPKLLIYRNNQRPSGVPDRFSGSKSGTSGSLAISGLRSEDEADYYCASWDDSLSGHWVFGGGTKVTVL', 242);
